target-under-test: T1, Anti-CD28 Fab (SEQ ID NOs: 696, 697)
T1 construct: In the phage ELISA the Fab was biotinylated and captured on neutravidin coated plates
T1 sequence (VH, as listed by the source, chain 1 of 2): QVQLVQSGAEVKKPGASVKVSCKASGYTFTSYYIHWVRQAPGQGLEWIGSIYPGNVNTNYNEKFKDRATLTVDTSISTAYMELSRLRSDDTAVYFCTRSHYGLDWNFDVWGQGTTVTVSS
T1 sequence (VL, as listed by the source, chain 2 of 2): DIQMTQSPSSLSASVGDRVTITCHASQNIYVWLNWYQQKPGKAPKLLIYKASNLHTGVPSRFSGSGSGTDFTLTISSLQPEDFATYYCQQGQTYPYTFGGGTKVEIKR
assay-explanation: phage binding ELISA; biotinylated anti-CD28 Fab on neutravidin plate, clonal phage supernatant, anti-M13 HRP detection
Where no end group is shown, it is not given here.
// Anti-CD28 Fab signal (phage binding ELISA) lookup, one value per entry
reported-metric: Anti-CD28 Fab signal (phage binding ELISA)

{"binder": "YCQGHLPQYVEKCL (cysteine pairing not given here; also: displayed fused to phage pIII protein, fusion end and linker not given here, Clonal phage of the peptide-87 library, tested as crude supernatant; not shown: fused to the pIII filament protein of the bacteriophage) [Phage-984]", "observed-result": 1.57}
{"binder": "YCDGHLPVYMMKCL (cysteine pairing not given here; also: displayed fused to phage pIII protein, fusion end and linker not given here, Clonal phage of the peptide-87 library, tested as crude supernatant; not shown: fused to the pIII filament protein of the bacteriophage) [Phage-994]", "observed-result": 1.55}
{"binder": "YCDGHSQAHMQKCL (cysteine pairing not given here; also: displayed fused to phage pIII protein, fusion end and linker not given here, Clonal phage of the peptide-87 library, tested as crude supernatant; not shown: fused to the pIII filament protein of the bacteriophage) [Phage-992]", "observed-result": 1.55}
{"binder": "YCDGHTSEYMTKCL (cysteine pairing not given here; also: displayed fused to phage pIII protein, fusion end and linker not given here, Clonal phage of the peptide-87 library, tested as crude supernatant; not shown: fused to the pIII filament protein of the bacteriophage) [Phage-996]", "observed-result": 1.54}
